Value source: patent US12233161B1

test system: mice; test: In vivo delivery of FLuc-mRNA lipid nanoparticles in mice, in vivo imaging (IVIS); conditions: Fluc-mRNA LNP; route IM; organ: lung; formulation, molar ratio and N/P as in the table
Tick 1 if IVIS is 30000 or greater. Tick -1 if IVIS is less than 30000.

CCCCCCC(CCCCCC)C(=O)NCCNC(=O)C(O)CN(CCCN(C)CCCN(CC(O)C(=O)NCCNC(=O)C(CCCCCC)CCCCCC)CC(O)C(=O)NCCNC(=O)C(CCCCCC)CCCCCC)CC(O)C(=O)NCCNC(=O)C(CCCCCC)CCCCCC (centres unmarked) [Compound L0379] :: 1
CCCCCCCC(CCCCCCC)OC(=O)CCCNC(=O)C(O)CN(CCCN(C)CCCN(CC(O)C(=O)NCCCC(=O)OC(CCCCCCC)CCCCCCC)CC(O)C(=O)NCCCC(=O)OC(CCCCCCC)CCCCCCC)CC(O)C(=O)NCCCC(=O)OC(CCCCCCC)CCCCCCC (centres unmarked) [Compound L0382] :: -1

**Q:** IVIS >= 30000 for CCCCCCC(CCCCCC)C(=O)NCCOC(=O)C(O)CN(CCN(C)CCN(CC(O)C(=O)OCCNC(=O)C(CCCCCC)CCCCCC)CC(O)C(=O)OCCNC(=O)C(CCCCCC)CCCCCC)CC(O)C(=O)OCCNC(=O)C(CCCCCC)CCCCCC (centres unmarked) [Compound L0362] ?
**A:** 1

**Q:** Quick one: CCCCCCCCC(CCCCCC)C(=O)OCCCCNC(=O)C(O)CN(CCCN(C)CCCN(CC(O)C(=O)NCCCCOC(=O)C(CCCCCC)CCCCCCCC)CC(O)C(=O)NCCCCOC(=O)C(CCCCCC)CCCCCCCC)CC(O)C(=O)NCCCCOC(=O)C(CCCCCC)CCCCCCCC (centres unmarked) [Compound L0376]
**A:** 1

###

Reported IVIS by item:
test system: mice; assay: In vivo delivery of FLuc-mRNA lipid nanoparticles in mice, in vivo imaging (IVIS); conditions: IV, lung; DMG-PEG2000:DSPC:Chol:compound 1.40:11.15:38.95:48.50, N/P 30; Fluc-mRNA
Keep the answer to the number alone.

CCCCCCCCC(CCCCCC)C(=O)OCCCCCCOC(=O)C(O)CN(C)CCN(C)CCN(C)CC(O)C(=O)OCCCCCCOC(=O)C(CCCCCC)CCCCCCCC (stereo not drawn) :: 2.05E+06

**Q:** Return reported IVIS; argument: CCCCCCC(CCCCCC)C(=O)OCCCCCCOC(=O)C(O)CN(C)CCN(C)CCN(C)CC(O)C(=O)OCCCCCCOC(=O)C(CCCCCC)CCCCCC (stereo not drawn)
**A:** 2.14E+05

**Q:** Quick one: CCCCCCC(CCCCCC)C(=O)OCCCCOC(=O)C(O)CN(CCN(C)CCN(CC(O)C(=O)OCCCCOC(=O)C(CCCCCC)CCCCCC)CC(O)C(=O)OCCCCOC(=O)C(CCCCCC)CCCCCC)CC(O)C(=O)OCCCCOC(=O)C(CCCCCC)CCCCCC (stereo not drawn)
**A:** 1.44E+07

**Q:** Quick one: CCCCCCCCCCNC(=O)C(O)CN(CCCN(CCCN(CC(O)C(=O)NCCCCCCCCCC)CC(O)C(=O)NCCCCCCCCCC)C(CO)CO)CC(O)C(=O)NCCCCCCCCCC (stereo not drawn)
**A:** 2.45E+06

**Q:** Quick one: CCCCCCOC(C)OCCCCCCOC(=O)C(O)CN(CCN(C)CCN(CC(O)C(=O)OCCCCCCOC(C)OCCCCCC)CC(O)C(=O)OCCCCCCOC(C)OCCCCCC)CC(O)C(=O)OCCCCCCOC(C)OCCCCCC (stereo not drawn)
**A:** 7.15E+06

**Q:** Quick one: CCCCCCC(CCCCCC)C(=O)OCCCCCCOC(=O)C(O)CN(CCN(C)CCN(CC(O)C(=O)OCCCCCCOC(=O)C(CCCCCC)CCCCCC)CC(O)C(=O)OCCCCCCOC(=O)C(CCCCCC)CCCCCC)CC(O)C(=O)OCCCCCCOC(=O)C(CCCCCC)CCCCCC (stereo not drawn)
**A:** 1.59E+06

**Q:** Quick one: CCCCCCCCCCCCCCOC(=O)C(O)CN(CCN(C)CCN(CC(O)C(=O)OCCCCCCCCCCCCCC)CC(O)C(=O)OCCCCCCCCCCCCCC)CC(O)C(=O)OCCCCCCCCCCCCCC (stereo not drawn)
**A:** 2.91E+05

**Q:** Quick one: CC/C=C\CCOCOCCCCCCOC(=O)C(O)CN(CCN(C)CCN(CC(O)C(=O)OCCCCCCOCOCC/C=C\CC)CC(O)C(=O)OCCCCCCOCOCC/C=C\CC)CC(O)C(=O)OCCCCCCOCOCC/C=C\CC (stereo not drawn)
**A:** 1.22E+07

**Q:** Quick one: CCCC/C=C\CCOCOCCCCOC(=O)C(O)CN(CCN(C)CCN(CC(O)C(=O)OCCCCOCOCC/C=C\CCCC)CC(O)C(=O)OCCCCOCOCC/C=C\CCCC)CC(O)C(=O)OCCCCOCOCC/C=C\CCCC (stereo not drawn)
**A:** 1.39E+06
